tested on: rat B1R (bradykinin receptor 1) (Rattus norvegicus)
Construct: expressed in transfected cells; host or cells: CHO K1 cells
Sequence (P97583 whole entry): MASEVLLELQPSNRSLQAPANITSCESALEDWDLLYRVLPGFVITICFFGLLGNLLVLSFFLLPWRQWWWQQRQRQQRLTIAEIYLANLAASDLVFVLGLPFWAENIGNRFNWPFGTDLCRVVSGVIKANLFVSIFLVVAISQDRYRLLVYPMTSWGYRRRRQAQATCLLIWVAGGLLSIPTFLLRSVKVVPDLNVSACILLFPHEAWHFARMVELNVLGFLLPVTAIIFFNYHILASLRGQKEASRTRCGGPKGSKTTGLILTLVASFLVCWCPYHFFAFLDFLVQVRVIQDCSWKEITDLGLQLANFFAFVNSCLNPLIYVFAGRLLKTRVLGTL
procedure text: FLIPR Ca2+ assay (Fluo-4) on CHO K1 cells stably transfected with the B1R gene of the rat (rB1R cells): % inhibition at 10 μM / IC50, agonist Des-Arg9-bradykinin
Format: cell-based
stated conditions: CHO-K1, rat B1R
Excerpt: The agonistic or antagonistic action of substances can be quantified on the bradykinin receptor 1 (B1R) of the human and rat species with ectopically expressing cell lines (CHO K1 cells) and with the aid of a Ca^2+-sensitive dyestuff (Fluo-4) in a fluorescent imaging plate reader (FLIPR). […] The agonistic or antagonistic action of substances can be determined on the bradykinin receptor 1 (B1R) of the human and rat species with the following assay. […]
Exercise: state measured inhibition at 10 µM for each of the molecules provided.
Numbers only, in %.

Observe how each entry below is paired with its result.
O=C(NC1CCc2ccc(C(=O)N3CCC4(CC3)CCN(c3ccncc3)CC4)cc21)c1cc(Cl)ccc1Cl (stereo not shown) [IND_CC-207] ... 101
N#Cc1cccc(CN2CCC3(CC2)CCN(C(=O)c2ccc4c(c2)C(NC(=O)c2ccccc2Cl)CC4)C3)c1 (stereo not shown) [IND_CC-562] ... 104
O=C(NC1CCc2ccc(C(=O)N3CCC4(CCN(Cc5ccc(F)cc5F)CC4)CC3)cc21)c1cc(Cl)ccc1F (stereo not shown) [IND_CC-629] ... 71
CN(C(=O)c1ccccc1Cl)C1CCc2ccc(C(=O)N3CCC4(CCN(C(=O)C5CC5)CC4)C3)cc21 (stereo not shown) [IND_CC-589] ... 81
O=C(NC1CCc2ccc(C(=O)N3CCC4(CCN(Cc5ccc6ncccc6c5)CC4)C3)cc21)c1cc(C(F)(F)F)ccc1Cl (stereo not shown) [IND_CC-684] ... 67

Report inhibition at 10 µM for every entry below.
1. O=C(N[C@@H]1CCc2cc(C(=O)N3CCC4(CCN(c5ccncc5)CC4)C3)ccc21)c1ccccc1Cl [Example H-171]
2. O=C(NC1CCc2ccc(C(=O)N3CCC4(CCN(CCc5ccccc5)CC4)CC3)cc21)c1cc(C(F)(F)F)ccc1Cl (stereo not shown) [IND_CC-701]
3. COc1cc(C)c(S(=O)(=O)N[C@H]2CCCc3ccc(C(=O)N4CCC5(CCN(c6ccncc6)CC5)C4)cc32)c(C)c1 [Example H-18]
4. N#Cc1ccc(CN2CCC3(CC2)CCN(C(=O)c2ccc4c(c2)C(NC(=O)c2sccc2Cl)CC4)C3)cc1 (stereo not shown) [IND_CC-569]

[104, 96, 104, 52]

Batch request: inhibition at 10 µM for each of the following molecules.
1. O=C(NC1CCc2ccc(CC(=O)N3CCC4(CCN(Cc5ccc6ncccc6c5)CC4)C3)cc21)c1ccccc1Cl (stereo not shown) [IND_CC-804]
2. COc1ccc2cc(C(=O)N[C@@H]3CCc4ccc(C(=O)N5CCC6(CCN(c7ccncc7)CC6)C5)cc43)ccc2c1 [Example H-56]
3. CC1(C)CC(NC(=O)c2cccc(Cl)c2Cl)c2cc(C(=O)N3CCC4(CC3)CCN(c3ccncc3)CC4)ccc21 (stereo not shown) [IND_CC-283]
4. CC1(C)CC(NC(=O)c2ccccc2Cl)c2cc(C(=O)N3CCC4(CCN(c5ccncc5)CC4)C3)ccc21 (stereo not shown) [Example H-132]

1. 61
2. 68
3. 107
4. 102

Provide reported inhibition at 10 µM for each item, in the same order as listed.
1. O=C(NC1CCc2ccc(C(=O)N3CCC4(CC3)CCN(c3ccncc3)C4)cc21)C1CCCCC1 (stereo not shown) [IND_CC-366]
2. Cc1cc(F)ccc1S(=O)(=O)NC1CC(C)(C)c2ccc(C(=O)N3CCC4(CC3)CCN(c3ccncc3)CC4)cc21 (stereo not shown) [IND_CC-339]

104
103

Look at each molecule and report its inhibition at 10 µM.
1. O=C(NC1CCc2ccc(C(=O)N3CCC4(CC3)CCN(c3ccncc3)CC4)cc21)c1ccccc1F (stereo not shown) [IND_CC-399]
2. O=C(NC1CCc2ccc(C(=O)N3CCC4(CC3)CCN(c3ccc(C(F)(F)F)cc3)CC4)cc21)c1ccc(F)cc1Cl (stereo not shown) [IND_CC-274]
3. COc1cc(C)c(S(=O)(=O)N[C@@H]2CCCc3ccc(C(=O)N4CCC5(CC4)CCN(c4ccncc4)CC5)cc32)c(C)c1 [Example H-17]
4. CC(C)CN1CCC2(CC1)CCN(C(=O)c1ccc3c(c1)C(NC(=O)c1cc(C(F)(F)F)ccc1Cl)CC3)CC2 (stereo not shown) [IND_CC-698]
5. COc1cccc(F)c1CN1CCC2(CC1)CCN(C(=O)c1ccc3c(c1)C(NC(=O)c1c(F)cccc1Cl)CC3)CC2 (stereo not shown) [IND_CC-793]
6. O=C(N[C@H]1CCc2ccc(C(=O)N3CCC4(CCN(c5ccncc5)CC4)C3)cc21)c1ccccc1Cl [Example H-20]
7. CN1CCN(C(=O)C2CCC3(CC2)CCN(C(=O)c2ccc4c(c2)[C@H](NC(=O)c2ccccc2Cl)CC4)CC3)CC1 [Example H-29]

101
102
102
90
79
105
55
